Assayed System: T1, human-CD40 monomer (human, UniProt P25942 21-193, limits assumed)
T1 construct: also called hCD40-monomer; human-CD40-monomer protein
T1 sequence (P25942 21-193 limits assumed): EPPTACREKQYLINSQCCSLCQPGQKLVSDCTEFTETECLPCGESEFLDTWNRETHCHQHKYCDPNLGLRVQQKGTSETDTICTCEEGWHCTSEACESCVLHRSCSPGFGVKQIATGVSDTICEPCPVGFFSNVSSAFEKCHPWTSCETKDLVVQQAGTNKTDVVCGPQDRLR
Assay Explanation: SPR 2 pt screen, Ab on protein A

| Binder | kon / M⁻¹ s⁻¹ |
| --- | --- |
| humanized Y1238 hz38 (hz-HC8 / hz-LC3), IgG1.3f (antibody, V domains shown, IgG1.3f heavy constant, common CL; expression supernatant; also called Sup 38) VH: QVQLVQSGAEVVKPGASVKVSCKASGYAFTNYLIEWVRQRPGQGLEWMGVINPGSGGTNYNEKFKGRVTLTADKSSSTAYMQLSRLRSDDTAVYFCARSQLGRRFDYWGQGTLVTVSS VL: DIQMTQSPSSLSASVGDRVTITCKASQDVRTGVAWYQQKPGQSPKLLIYSASYRNTGVPSRFSGSRSGTDFTFTISSLQPEDIAVYYCQQHYSPPYTFGGGTKVEIK | 39000 |
| humanized Y1238 hz45 (hz-HC9 / hz-LC5), IgG1.3f (antibody, V domains shown, IgG1.3f heavy constant, common CL; expression supernatant; also called Sup 45) VH: QVQLVQSGAEVVKPGASVKVSCKASGYAFTNYLIEWVRQRPGQGLEWMGVINPGSGGTNYNEKFKGRVTLTADKSSSTAYMQLSRLRSDDTAVYFCARSQLGRRFDYWGQGTTVTVSS VL: DIQMTQSPSSLSASVGDRVTITCKASQDVRTGVAWYQQKPGQAPKLLIYSASYRNTGVPSRFSGSRSGTDFTFTISSLQPEDIAVYYCQQHYSPPYTFGGGTKVEIK | 39000 |
| humanized Y1238 hz37 (hz-HC8 / hz-LC2), IgG1.3f (antibody, V domains shown, IgG1.3f heavy constant, common CL; expression supernatant; also called Sup 37) VH: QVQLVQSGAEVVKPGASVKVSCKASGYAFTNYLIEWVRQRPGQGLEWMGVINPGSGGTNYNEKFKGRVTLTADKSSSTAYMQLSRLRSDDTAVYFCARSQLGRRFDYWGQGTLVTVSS VL: DIQMTQSPSSLSASVGDRVTITCKASQDVRTGVAWYQQKPGKAPKLLIYSASYRNTGVPSRFSGSRSGTDFTFTISSLQPEDIATYYCQQHYSPPYTFGGGTKVEIK | 37000 |
| humanized Y1238 hz27 (hz-HC6 / hz-LC2), IgG1.3f (antibody, V domains shown, IgG1.3f heavy constant, common CL; expression supernatant; also called Sup 27) VH: QVQLVQSGAEVKKPGASVKVSCKASGYAFTNYLIEWVRQRPGQGLEWMGVINPGSGGTNYNEKFKGRVTLTADKSISTAYMELSRLRSDDTAVYYCARSQLGRRFDYWGQGTLVTVSS VL: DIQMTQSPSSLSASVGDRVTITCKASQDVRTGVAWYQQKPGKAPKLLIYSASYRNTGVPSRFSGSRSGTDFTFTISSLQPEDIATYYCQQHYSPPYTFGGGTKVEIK | 40000 |
| humanized Y1238 hz29 (hz-HC6 / hz-LC4), IgG1.3f (antibody, V domains shown, IgG1.3f heavy constant, common CL; expression supernatant; also called Sup 29) VH: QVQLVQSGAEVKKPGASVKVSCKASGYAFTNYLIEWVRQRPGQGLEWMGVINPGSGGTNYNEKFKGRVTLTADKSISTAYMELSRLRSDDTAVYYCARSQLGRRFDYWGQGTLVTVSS VL: DIQMTQSPSSLSASVGDRVTITCKASQDVRTGVAWYQQKPGQSPKLLIYSASYRNTGVPSRFSGSRSGTDFTFTISSLQAEDIAVYYCQQHYSPPYTFGGGTKVEIK | 42000 |

The measured values listed here are drawn from patent US20220177596A1.
